# target_or_test_system: T1, human histidine-rich glycoprotein (HRG), purified from human plasma (human, UniProt P04196 19-525)
# T1 construct: also called human purified HRG; human purified HRG protein
# T1 sequence: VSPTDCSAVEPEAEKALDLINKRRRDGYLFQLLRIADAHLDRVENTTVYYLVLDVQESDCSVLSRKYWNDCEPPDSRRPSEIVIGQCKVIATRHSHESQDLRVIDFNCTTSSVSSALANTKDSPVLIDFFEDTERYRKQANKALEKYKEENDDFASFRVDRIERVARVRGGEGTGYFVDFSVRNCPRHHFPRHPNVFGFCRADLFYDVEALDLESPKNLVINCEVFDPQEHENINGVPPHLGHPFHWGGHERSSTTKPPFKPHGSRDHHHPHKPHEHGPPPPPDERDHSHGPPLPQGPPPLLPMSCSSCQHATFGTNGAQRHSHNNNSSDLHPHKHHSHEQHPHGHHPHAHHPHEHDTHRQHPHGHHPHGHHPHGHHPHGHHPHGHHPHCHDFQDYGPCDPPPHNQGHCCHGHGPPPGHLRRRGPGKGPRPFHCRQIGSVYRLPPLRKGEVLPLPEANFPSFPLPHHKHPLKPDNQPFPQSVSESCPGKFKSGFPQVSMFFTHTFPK
# protocol_notes: sandwich ELISA, HRG captured by solid phase 42-10D
readout_name: absorbance at 450 nm

anti-HRG monoclonal antibody 65-3A (antibody, V domains shown, Mouse hybridoma monoclonal) VH: QVILKESGPGILQPSQTLSLTCSFSGFSLSTSGVGVSWIRQPSGKGLEWLAHIYWDDDKHYNPSLKSRLTISKDTSRNQVFLRITSVDTADTATYYCALGTVGGPWFPYWGQGTLVTVSA VL: DVQMNQSHKFMSTSVGDRVSITCKASQDVSTAVAWYQQKPGQSPKILIYWASIRHTGVPDRFTGSGSGTDYTLTISSVQAEDLTLYYCQQHYSTPWTFGGGTKLEIK    < 1 OD

Continue with the next binder.
Ask | Specify absorbance at 450 nm for anti-HRG monoclonal antibody 69-1A (antibody, V domains shown, Mouse hybridoma monoclonal; also called clone No. 69-1A) VH: EVKLEESGGGLVQPGGSMKLSCAASGFTFSDAWMDWVRQSPEKGLEWVAEIRSKANNHGTYYAESVKGRFTISRDDSKSSVYLRMNSLSAEDTGIYYCTRPFAYWGQGTLVTVSA VL: DVVVTQTPLSLPVSLGDQASISCRSSQSLVHIDGNTYFHWYVQKPGQSPKLLIYKVSNRFSGVPDRFSGSGSGTDFTLKISRVEAEDLGVYFCSQSTHVPLTFGAGTKLELK and stop.
Reply | < 1 OD

Data provenance is patent US20250258178A1.
